meta.source: PubChem BioAssay (NCI)

Test: NCI Yeast Anticancer Drug Screen. Data for the mec2-1 strain (AID 157)
Conditions: S. cerevisiae mec2-1 strain, at 50.0 µM
The panel holds about 79,000 compounds, 15% with a hit somewhere; the sample as a whole holds those more often. The source made the active and inactive calls. Cut-off read from the data, not from the text of the source: active = growth inhibition above about 70%; inactive = the rest.
Use one of these outcomes when replying: active, inactive

Some entries whose results are on file:
- compound: "O=c1c2cc(Cl)ccc2[nH]c2cc(O)cc(O)c12"
  qualitative-label: "inactive"
- compound: "CNC(C)C(=O)c1ccc2ccc3ccccc3c2c1 (stereo unspecified)"
  qualitative-label: "inactive"
- compound: "Cc1cc(NC(=S)SCc2ccc3c(c2)OCO3)ccc1Cl"
  qualitative-label: "active"

Incoming: Any idea what this test logged for O=[N+]([O-])C(=C(Nc1ccccc1)Nc1ccccc1)C(Cl)=C(Cl)Cl ?
Outgoing: active

Incoming: Would you kindly repeat that for COC(=O)[C@@]12OC[C@]34[C@H]([C@@H](O)[C@@H]1O)[C@@]1(C)CC(=O)C(OC(=O)CC(=O)OC5=C(C)[C@@H]6C[C@H]7OC(=O)[C@H](OC(=O)/C=C(\C)C(C)C)[C@H]8[C@]9(C(=O)OC)OC[C@]78[C@H]([C@@H](O)[C@@H]9O)[C@@]6(C)CC5=O)=C(C)[C@@H]1C[C@H]3OC(=O)[C@H](OC(=O)/C=C(\C)C(C)C)[C@@H]24 ?
Outgoing: active

Incoming: Would you kindly repeat that for O=C1CC(O)CC(=O)C1=C(O)CCCCCCCCCCc1ccccc1 (stereo unspecified) ?
Outgoing: active

Incoming: Would you kindly repeat that for CC1=C(C#N)C(=O)N(C)C(=O)C1(Cl)Cl ?
Outgoing: inactive

Incoming: Would you kindly repeat that for CCNc1ccccc1C ?
Outgoing: active

Incoming: Would you kindly repeat that for COc1cc2c(c(C)c1O)[C@H]1COc3ccccc3[C@H]1O2 ?
Outgoing: active

Incoming: Would you kindly repeat that for CCS(=O)(=O)C(C(O)C(O)C(O)C(O)CO)S(=O)(=O)CC (stereo unspecified) ?
Outgoing: inactive

Incoming: Would you kindly repeat that for CN(/N=C\c1cccc([N+](=O)[O-])c1)C(c1cccc([N+](=O)[O-])c1)N(C)/N=C/c1cccc([N+](=O)[O-])c1 (stereo unspecified) ?
Outgoing: inactive

Incoming: Would you kindly repeat that for CCOC(=O)/C(=C\N1C(=O)/C(=C\C(C)=C\c2ccccc2)SC1=S)C(=O)c1ccccc1 ?
Outgoing: inactive

Incoming: Would you kindly repeat that for NNc1ccccc1[N+](=O)[O-] ?
Outgoing: active

Incoming: Would you kindly repeat that for [O-]c1c2cc(-[n+]3c(-c4ccccc4)cc(-c4ccccc4)cc3-c3ccccc3)cc1CO[C@@H](c1ccccc1)[C@H](c1ccccc1)OCc1cccc(n1)CO[C@@H](c1ccccc1)[C@H](c1ccccc1)OC2 ?
Outgoing: active

Incoming: Would you kindly repeat that for CCCOC(=O)COc1ccccc1C(=O)OCCC ?
Outgoing: inactive

###

Experiment: NCI Yeast Anticancer Drug Screen. Data for the sgs1 mgt1 strain (AID 161);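 note: 0% = growth of cultures given vehicle only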
Conditions: S. cerevisiae sgs1 mgt1 strain, at 50.0 µM, active compounds read high
Compounds without any hit were thinned out: in the full panel of roughly 79,000, 15% have a hit.
Class boundaries, taken from values of growth inhibition, are as follows: low (below 20%), moderate (20% to below 90%), high (90% or more)

- compound: "Nc1nc(SCc2ccccc2)c2ncn(CCCl)c2n1"
  qualitative-label: "low"
- compound: "COc1ccc(-c2c3c(cc4cc5c(cc24)OCO5)C(=O)OC3)cc1OC"
  qualitative-label: "high"

Incoming: Where would CC1(C)/C=C/C2=Nc3cc(Br)c(Br)c(Br)c3C23CC(=O)N3/C=C(\Cl)c2nc(Br)[nH]c21 (centres undefined) land among the classes by reported growth inhibition?
Outgoing: high

Incoming: Would you kindly repeat that for CCOC(=O)/C(=C\c1ccccc1)C(=O)CCN1CCOCC1 ?
Outgoing: moderate

Incoming: Would you kindly repeat that for CCCCCCCCCc1ccc(OCC(O)CO)cc1 (centres undefined) ?
Outgoing: high

###

Experiment: NCI Yeast Anticancer Drug Screen. Data for the sgs1 mgt1 strain (AID 161);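 note: 0% = growth of cultures given vehicle only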
Conditions: S. cerevisiae sgs1 mgt1 strain, at 50.0 µM, active compounds read high
This is part of a sample that, as a whole, favours compounds with a hit. Of some 79,000 tested, about 15% had one in any assay.
Answer Not satisfied if growth inhibition is under 70%, and Satisfied if it is 70% or more.

Some entries whose results are on file:
- molecule: "Oc1c(Cl)cc(C(c2cc(Cl)c(O)c(Cl)c2)C(c2cc(Cl)c(O)c(Cl)c2)c2cc(Cl)c(O)c(Cl)c2)cc1Cl"
  qualitative-label: "Not satisfied"
- molecule: "CC(=O)OC(CCl)C(C)[N+](=O)[O-] (stereo unspecified)"
  qualitative-label: "Not satisfied"
- molecule: "COc1ccc(OC2OC(COC(c3ccccc3)(c3ccc(OC)cc3)c3ccc(OC)cc3)C(O)C(O)C2O)cc1 (stereo unspecified)"
  qualitative-label: "Satisfied"
- molecule: "O=[N+]([O-])C(=C(Nc1ccccc1)Nc1ccccc1)C(Cl)=C(Cl)Cl"
  qualitative-label: "Satisfied"
- molecule: "C[C@H]1CC[C@@H]2[C@@H](C)[C@H]3[C@H](C[C@H]4[C@@H]5CC=C6C[C@@H](O)CC[C@]6(C)[C@H]5CC[C@]34C)N2C1"
  qualitative-label: "Satisfied"
- molecule: "CC(C)N=Cc1cc(Br)cc(Br)c1O.CC(C)N=Cc1cc(Br)cc(Br)c1O.[Co]"
  qualitative-label: "Satisfied"
- molecule: "S=C1NC2=C(CSC/C2=C\\c2ccccc2)C(c2ccccc2)N1 (stereo unspecified)"
  qualitative-label: "Not satisfied"
- molecule: "O=[N+]([O-])c1ccccc1Oc1ccc([N+](=O)[O-])c(C(F)(F)F)c1"
  qualitative-label: "Satisfied"

Now consider a different molecule.
Incoming: Check if growth inhibition >= 70% (inclusive). Item: O=C1C2Nc3ccccc3SC2C(=O)N1c1ccccc1C(F)(F)F (stereo unspecified)
Outgoing: Not satisfied

###

Experiment: NCI Yeast Anticancer Drug Screen. Data for the bub3 strain (AID 167)
Conditions: S. cerevisiae bub3 mutant strain, at 50.0 µM
The panel holds about 79,000 compounds, 15% with a hit somewhere; the sample as a whole holds those more often. The source made the active and inactive calls. Rule as the data show it: active = growth inhibition above about 70%; inactive = the rest.
Use one of these outcomes when replying: YES for active, NO for inactive

Some entries whose results are on file:
- compound: "O=C1CC(O)CC(=O)C1=C(O)CCCCCCCCCCc1ccccc1 (stereo not drawn)"
  qualitative-label: "YES"
- compound: "COc1cc[c]([Sn]([c]2ccc(OC)cc2)([c]2ccc(OC)cc2)[c]2ccc(OC)cc2)cc1"
  qualitative-label: "YES"
- compound: "Cc1ccc(N=Nc2c(-c3ccccc3)nn(C(=S)S)c2-c2ccccc2)cc1"
  qualitative-label: "YES"
- compound: "COc1cccc2c1C(=O)c1c(O)c3c(c(O)c1C2=O)C[C@@](O)(/C(C)=N/NC(N)=S)C[C@@H]3OC1CC(N)C(O)C(C)O1 (stereo partly drawn)"
  qualitative-label: "YES"
- compound: "Cc1cc(=Nc2ccc3c(c2)c(N)cc(C)[n+]3C)nc(N)n1C"
  qualitative-label: "YES"

Incoming: Any idea what this test logged for COc1cc(/C=C/C(=O)c2ccc3ccccc3c2)cc(OC)c1OC ?
Outgoing: NO

Incoming: Would you kindly repeat that for Cc1ccnc2[nH]c3ccccc3c(=O)c12 ?
Outgoing: NO

Incoming: Would you kindly repeat that for CC(C)SC(=S)Nc1ccc(Cl)cc1 ?
Outgoing: YES

Incoming: Would you kindly repeat that for CC1=C(C)C1[N+](=O)[O-] ?
Outgoing: NO

Incoming: Would you kindly repeat that for O=C1C=C(c2ccccc2)OC(c2ccccc2)C1 (stereo not drawn) ?
Outgoing: NO

Incoming: Would you kindly repeat that for Cc1cccc(N2C(c3ccccc3)c3ccc(C)cc3NS2=O)c1 (stereo not drawn) ?
Outgoing: YES

Incoming: Would you kindly repeat that for CCC[CH2][Sn]([CH2]CCC)([O]C(=O)c1cc(F)cc(F)c1)[O][Sn]([CH2]CCC)([CH2]CCC)[O]C(=O)c1cc(F)cc(F)c1 ?
Outgoing: YES

Incoming: Would you kindly repeat that for COC(C(=O)O)c1ccccc1 (stereo not drawn) ?
Outgoing: NO

Incoming: Would you kindly repeat that for c1ccc2c(O[Si](Oc3cccc4ccccc34)(Oc3cccc4ccccc34)Oc3cccc4ccccc34)cccc2c1 ?
Outgoing: YES

Incoming: Would you kindly repeat that for CCCCCOC(=O)c1ccc(O)cc1 ?
Outgoing: YES

Incoming: Would you kindly repeat that for NC(N)=N/N=C(\c1ccc(F)cc1)c1ccc(C(F)(F)F)cc1 ?
Outgoing: YES

###

Assay: NCI Yeast Anticancer Drug Screen. Data for the bub3 strain (AID 167)
Settings: S. cerevisiae bub3 mutant strain, at 50.0 µM, active compounds read high
About 79,000 compounds went through this panel and 15% of them were active in at least one assay; those are over-represented in the sample as a whole.
recorded-metric: growth inhibition (%)
The figure you give is taken to be in %; do not add the unit.

Worked examples follow.
- compound: "CCC12C=CCN3CCC4(c5cc(C(c6ccccn6)c6cc7ccccc7n6C)c(OC)cc5N(C)C4C(O)(C(=O)OC)C1OC(C)=O)C32 (stereo not drawn)"
  growth inhibition (%): 65
- compound: "O=C(O)Cc1c[nH]c2ccccc12"
  growth inhibition (%): 92.5
- compound: "Nc1nc(-c2ccc3c(c2)Sc2ccccc2O3)cs1"
  growth inhibition (%): 86.7
- compound: "CCCN1CSC(=S)N(CCC)C1"
  growth inhibition (%): 86.2
- compound: "N#CC1C(=O)NC(=O)C(C#N)C1c1c(Cl)cccc1Cl (stereo not drawn)"
  growth inhibition (%): 91

Incoming: Need growth inhibition, item O=[N+]([O-])/C(Cl)=C(\Nc1ccccc1)C(Cl)=C(Cl)Cl
Outgoing: 90.4

Incoming: Would you kindly repeat that for CCN(CC)CC(O)CNc1cc(C)nc(/N=C(\N)Nc2ccc(Cl)c(Cl)c2)n1 (stereo not drawn) ?
Outgoing: 34.2

Incoming: Would you kindly repeat that for C/C(=N\NC(=S)N/N=C(\C)c1ccccn1)c1ccccn1 ?
Outgoing: 87.9

Incoming: Would you kindly repeat that for C#CCN(N=O)C(=O)NCCCC(NC(C)=O)C(=O)NCc1ccccc1 (stereo not drawn) ?
Outgoing: -13.6

Incoming: Would you kindly repeat that for C(=C/c1ccnc2ccccc12)/c1cccs1 ?
Outgoing: 98.3

Incoming: Would you kindly repeat that for O=C(NCCc1c(-c2ccccc2)[nH]c2ccccc12)C(F)(F)C(F)(F)F ?
Outgoing: 79

Incoming: Would you kindly repeat that for [N-]=[N+]=Nc1c(-c2ccccc2)c(=O)n(-c2ccccc2)c2ccccc12 ?
Outgoing: 90

Incoming: Would you kindly repeat that for CCCC[NH-].CCCC[NH-].[I][Pt+2][I] ?
Outgoing: 49.4

Incoming: Would you kindly repeat that for Nc1nc2ccccc2cc1C(=O)O ?
Outgoing: 12.5

Incoming: Would you kindly repeat that for CCOC(=O)c1c(C)[nH]c(C(=O)C(N)C(=O)OCC)c1C (stereo not drawn) ?
Outgoing: 99.4

Incoming: Would you kindly repeat that for CN(C)CCN(C)CCC(=O)/C=C/c1ccccc1 ?
Outgoing: 98.2

Incoming: Would you kindly repeat that for C[Si](C)(CCC(=O)O)O[Si](C)(C)CCC(=O)O ?
Outgoing: 99.5

Incoming: Would you kindly repeat that for CSC(=S)NN=C1CCCC1 ?
Outgoing: 94.8

Incoming: Would you kindly repeat that for C/C(=N\NC(=S)Nc1ccc(C)cc1)c1nc2ncccc2[nH]1 ?
Outgoing: 71.5

Incoming: Would you kindly repeat that for CC1=C(C(=O)NCc2ccccc2)C(c2ccccc2[N+](=O)[O-])C(C(=O)NCc2ccccc2)=C(C)N1 ?
Outgoing: 81.1

Incoming: Would you kindly repeat that for CCCCCCOC(=O)Nc1ccc(S(=O)(=O)N2CCCCC2)cc1 ?
Outgoing: 73.8

Incoming: Would you kindly repeat that for Clc1ccnc2c1ccc1c(Cl)ccnc12 ?
Outgoing: 40.6

Incoming: Would you kindly repeat that for O=[N+]([O-])c1ccc(N/N=C/CCCCCCCCCCBr)c([N+](=O)[O-])c1 ?
Outgoing: 50.3

Incoming: Would you kindly repeat that for CC1=C(C(=O)OCCO[N+](=O)[O-])C(c2ccccc2[N+](=O)[O-])C(C(=O)OC(C)C)=C(C)N1 (stereo not drawn) ?
Outgoing: 89.6

Incoming: Would you kindly repeat that for COc1ccc(C2C3C(=O)OCCOC(=O)C3C2c2ccc(OC)c(OC)c2)cc1OC (stereo not drawn) ?
Outgoing: 18.9
